# tested-target: T1, cyno TIGIT on cells (cynomolgus macaque)
# T1 construct: whole, on cells; also called Expi293 cyno TIGIT over-expressing cells
# test-description: FACS titration of AF647-labelled mAb on cyno effector memory CD8+ T cells, Cyno Donor 1; isotype gMFI subtracted
Collected Kd values appear next to each entry.
Field note: include the unit after the figure.

Some solved entries appear below for comparison.
• CPA.9.086.H4(S241P) (antibody, human IgG4 S228P, lambda, V domains shown) VH: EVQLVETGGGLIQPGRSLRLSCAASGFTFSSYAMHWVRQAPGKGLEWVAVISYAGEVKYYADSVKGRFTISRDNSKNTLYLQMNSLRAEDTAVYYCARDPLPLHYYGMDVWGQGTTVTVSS VL: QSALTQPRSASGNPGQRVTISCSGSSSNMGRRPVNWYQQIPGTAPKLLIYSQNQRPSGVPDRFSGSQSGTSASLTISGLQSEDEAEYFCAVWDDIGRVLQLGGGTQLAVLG = 0.43 nM
• CPA.9.103 (antibody, human IgG4 S228P, kappa, V domains shown, AF647 dye on the antibody in the FACS assay of FIG. 73, fab form is m92; also called CPA.9.103.H4(S241P)) VH: EVQLVETGGGLIQPGGSLRLSCAASGFTVSSNYMSWVRQAPGKGLEWVSVIYSGGSTYYADSVKGRFTISRDNSKNTLYLQMNSLRAEDTAVYYCARGARPNGQYPYWGQGTLVTVSS VL: DIQLTQSPSFLSASVGDRVTITCRASHGIKSLFSWYQQKPGKAPKLLIYAASTLQTGVPSRFSGSASGTEFTLTISSLQPEDFATYYCLQLDSFPTWTFGQGTKVEIKR = 31 nM
• CPA.9.083.H4(S241P) (antibody, human IgG4, V domains shown) VH: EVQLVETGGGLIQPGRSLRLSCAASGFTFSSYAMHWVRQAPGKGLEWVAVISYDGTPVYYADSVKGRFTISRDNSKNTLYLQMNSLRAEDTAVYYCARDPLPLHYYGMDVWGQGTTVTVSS VL: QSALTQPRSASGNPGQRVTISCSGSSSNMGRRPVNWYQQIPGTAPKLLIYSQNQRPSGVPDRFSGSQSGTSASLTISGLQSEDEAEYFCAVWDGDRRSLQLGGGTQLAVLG = 0.82 nM

Kindly review the next binder as well.
IN: Name the recorded Kd for CHA.9.547.1 (antibody, human IgG4 S228P, kappa, V domains shown, AF647 dye on the antibody in the FACS assay of FIG. 73, also called CHA.9.547.1.H4(S241P)) VH: EVQLVESGGGLVQPGGSLRLSCAASGFTFSSYIMSWVRQAPGKGLEWVSTISGGGTNTYYADSVKGRFTISRDNSKNTLYLQMNSLRAEDTAVYYCAKWLLSYYAMDYWGQGTLVTVSS VL: DIQMTQSPSSLSASVGDRVTITCRASQNINVWLTWYQQKPGKAPKLLIYKASNLHTGVPSRFSGSGSGTDFTLTISSLQPEDFATYYCQQGQSYPYTFGQGTKLEIKR .
OUT: 25 nM
